assay: Oral bioavailability in Sprague-Dawley rat at 30 mg/kg; assay type: ADME, organism-based; conditions: in vivo
Reported bioavailability values are given for each entry in this list.
measurement_type: bioavailability

{"query_smiles": "CC[C@H]1OC(=O)[C@H](C)[C@@H](O[C@H]2C[C@@](C)(OC)[C@@H](O)[C@H](C)O2)[C@H](C)[C@@H](O[C@@H]2O[C@H](C)C[C@H](N(C)C)[C@H]2O)[C@](C)(O)C[C@@H](C)CN(CCCNC(=S)NCCCc2ccccc2)[C@H](C)[C@@H](O)[C@]1(C)O", "measurement": "1.3%"}
{"query_smiles": "CC[C@H]1OC(=O)[C@H](C)[C@@H](O[C@H]2C[C@@](C)(OC)[C@@H](O)[C@H](C)O2)[C@H](C)[C@@H](O[C@@H]2O[C@H](C)C[C@H](N(C)C)[C@H]2O)[C@](C)(O)C[C@@H](C)CN(CCCNC(=S)NCc2ccccc2)[C@H](C)[C@@H](O)[C@]1(C)O", "measurement": "3.4%"}
{"query_smiles": "CC[C@H]1OC(=O)[C@H](C)[C@@H](O[C@H]2C[C@@](C)(OC)[C@@H](O)[C@H](C)O2)[C@H](C)[C@@H](O[C@@H]2O[C@H](C)C[C@H](N(C)C)[C@H]2O)[C@](C)(O)C[C@@H](C)CN(C)[C@H](C)[C@@H](O)[C@]1(C)O", "measurement": "33%"}
{"query_smiles": "CC[C@H]1OC(=O)[C@H](C)[C@@H](O[C@H]2C[C@@](C)(OC)[C@@H](O)[C@H](C)O2)[C@H](C)[C@@H](O[C@@H]2O[C@H](C)C[C@H](N(C)C)[C@H]2O)[C@](C)(O)C[C@@H](C)CN(CCCN(CCC#N)C(=S)NCCCc2ccccc2)[C@H](C)[C@@H](O)[C@]1(C)O", "measurement": "21%"}
{"query_smiles": "CC[C@H]1OC(=O)[C@H](C)[C@@H](O[C@H]2C[C@@](C)(OC)[C@@H](O)[C@H](C)O2)[C@H](C)[C@@H](O[C@@H]2O[C@H](C)C[C@H](N(C)C)[C@H]2O)[C@](C)(O)C[C@@H](C)CN(CCCN(CCC#N)C(=O)Nc2ccc(Cl)cc2Cl)[C@H](C)[C@@H](O)[C@]1(C)O", "measurement": "18.4%"}
